target: CMY-10 β-lactamase (class C) (Klebsiella aerogenes, UniProt Q99QC1); construct: MICs of bacterial strains used for extraction of enzymes; endogenous in cells; experiment: Inhibitory activity against β-lactamases (nitrocefin), CMY-10; assay type: biochemical; conditions: 100 μM nitrocefin, 30° C., pH 6.8; read-out: IC50 values, CMY-10
Sequence (Q99QC1 24-382): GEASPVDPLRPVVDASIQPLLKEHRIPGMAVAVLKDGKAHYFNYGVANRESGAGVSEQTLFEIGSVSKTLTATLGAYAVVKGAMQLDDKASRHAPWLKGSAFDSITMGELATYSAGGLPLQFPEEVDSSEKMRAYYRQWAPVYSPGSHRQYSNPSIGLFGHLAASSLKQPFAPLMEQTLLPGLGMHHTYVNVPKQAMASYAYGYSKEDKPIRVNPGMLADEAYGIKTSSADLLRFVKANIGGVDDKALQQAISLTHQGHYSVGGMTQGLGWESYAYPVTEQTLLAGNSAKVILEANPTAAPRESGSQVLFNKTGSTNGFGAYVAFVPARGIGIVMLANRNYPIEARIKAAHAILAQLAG
endpoint: IC50 (µM)
Give the value, in units of µM, as a plain number.

Task item: Kindly state the measured IC50 obtained for NCCONC(=O)[C@@H]1CC[C@@H]2CN1C(=O)N2OS(=O)(=O)O with CMY-10 β-lactamase (class C) (Klebsiella aerogenes, UniProt Q99QC1).
Reply: 42.6

---

Measured MIC of Meropenem with BLI accompanies every entry in the list below.
system: K. pneumoniae 4248; assay: BLI potentiation MIC, K. pneumoniae 4248 (SHV-11, CTX-M-15, TEM-1, OXA-1); assay type: cell-based; conditions: BLI fixed 4 ug/ml; incubation 19 h
Give the value, in units of µg/mL, as a plain number.

Task item: Could you share which MIC of Meropenem with BLI value was measured for NCC1(C(N)=O)CC([C@@H]2CC[C@@H]3CN2C(=O)N3OS(=O)(=O)O)=NO1 (stereo partly shown) [Example 14] ?
Reply: 0.0625

Task item: What do we get for NC(=O)CN1CCC2(CC([C@@H]3CC[C@@H]4CN3C(=O)N4OS(=O)(=O)O)=NO2)C1 (stereo partly shown) [Example 12] ?
Reply: 0.125

Task item: What do we get for NCC1(CO)CC([C@@H]2CC[C@@H]3CN2C(=O)N3OS(=O)(=O)O)=NO1 (stereo partly shown) [Example 13] ?
Reply: 0.0625

Task item: What do we get for NCCONC(=O)[C@@H]1CC[C@@H]2CN1C(=O)N2OS(=O)(=O)O [OP-595] ?
Reply: 0.0625

---

experiment: Mouse pharmacokinetics; assay type: in vivo, ICR mouse; settings: ICR, IV, 50 mg/kg, plasma, read-out: Vss
endpoint: Vd (L/kg)
Give the value, in units of L/kg, as a plain number.

compound=NCC1(CN)CC([C@@H]2CC[C@@H]3CN2C(=O)N3OS(=O)(=O)O)=NO1 endpointvalue=2.23
compound=O=C1N2C[C@@H](CC[C@H]2C2=NO[C@]3(CCNC3)C2)N1OS(=O)(=O)O endpointvalue=1.81

Now for another entry.
Task item: Could you share which Vd value was measured for NCC1CC([C@@H]2CC[C@@H]3CN2C(=O)N3OS(=O)(=O)O)=NO1 (stereo partly drawn) ?
Reply: 1.57
